meta.source: patent US7452997B2

Listed here: items and their measured IC50.
molecular target: UniProt P34972; experiment: Binding assay, cannabinoid CB2 receptor ([3H]-CP-55,940 displacement); conditions: Cannabinoid CB2 Receptor Binding IC50, human CB2 receptor, SK-N-MC cell membranes, radioligand CP-55,940 0.2 nM
Sequence (P34972 whole entry): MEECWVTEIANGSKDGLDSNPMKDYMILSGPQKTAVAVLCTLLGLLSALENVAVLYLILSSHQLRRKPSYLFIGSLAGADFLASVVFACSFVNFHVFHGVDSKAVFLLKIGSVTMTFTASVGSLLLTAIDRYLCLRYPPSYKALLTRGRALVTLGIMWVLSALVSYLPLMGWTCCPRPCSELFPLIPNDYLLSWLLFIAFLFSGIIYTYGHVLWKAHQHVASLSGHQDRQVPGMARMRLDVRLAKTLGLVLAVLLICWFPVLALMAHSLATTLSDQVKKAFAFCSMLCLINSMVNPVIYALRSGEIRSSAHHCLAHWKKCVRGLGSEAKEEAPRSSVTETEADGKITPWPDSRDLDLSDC
Provide the reading as a plain figure in nM.

Example entries begin here.
In [3]: df
Out[3]:
                                   molecule  assayed_system  reading
0  CCOC(=O)[C@@H]1C2C=CC(C2)[C@@H]1NC(=O)c1nn(Cc2ccccc2)c2c1CCCC2 (some centres unmarked)  UniProt P34972     14.1
1  CC12CCC(C1)C(C)(C)C2NC(=O)c1nn(-c2ccccc2F)c2c1CCCC2 (centres unmarked)  UniProt P34972      5.4
2  CCOC(=O)C1CC=CCC1NC(=O)c1nn(C2CCCCC2)c2c1CCCC2 (centres unmarked)  UniProt P34972       33

Lab note: measured IC50 of CCOC(=O)C1CCc2c(c(C(=O)N[C@H](C)C3CCCCC3)nn2C2CCCCC2)C1 (some centres unmarked) was 2.8

The reported value for CCOC(=O)[C@@H]1CCCC[C@@H]1NC(=O)c1nn(-c2ccc(F)cc2)c2c1CCCC2 in terms of IC50 is 8

Query CC(NC(=O)c1nn(C2CCCCC2)c2c1CC(CO)CC2)C12CC3CC(CC(C3)C1)C2 (centres unmarked) yields IC50 of 1260

In plain terms, CC12CCC(C1)C(C)(C)C2NC(=O)c1nn(C2CCCCC2)c2c1CC(C(N)=O)CC2 (centres unmarked) has a documented IC50 of 300

Entry COc1ccc(-n2nc(C(=O)NC3C4(C)CCC(C4)C3(C)C)c3c2CCCC3)cc1 (centres unmarked) ; IC50 = 11.9
